Literature pKi values, system: UniProtKB P28223.
Here pKi is given on a logarithmic scale as minus log10 of the concentration in mol/L.

Reported pKi ( COc1ccccc1-c1cc(C2CCN(C)C2)ccc1Cl (stereo unspecified) ) = 5.92

Lab book: pKi of CN1CCN(C2=Nc3cc(Cl)ccc3N(NC(=O)c3c(F)cccc3C(F)(F)F)c3ccccc32)CC1 noted as 8.92

Entry O=C(c1cccc2cccnc12)N1CCC(CCc2ccc(F)cc2F)CC1 ; pKi = 8.54

In plain terms, O=c1ccc2cnc(OCCCCN3CCN(c4cccc(Cl)c4Cl)CC3)cc2[nH]1 has a documented pKi of 8.54

// sample OCCN1CCN(c2nc(NCc3ccccc3)c3ccccc3n2)CC1 , its pKi was 6.28

The recorded pKi for CN(C)CCc1cccc2[nH]cc(S(=O)(=O)c3ccccc3)c12 is 6.58
